Each record here notes measured TGI.
System: HOP-92 NSCLC
Experiment: NCI tumour cell line growth inhibition, 48 h

For record CCC(C)(C)c1ccc(OCCCCCCN2CCNCC2)cc1 the listed TGI is 6.82 µM

For record N#C/C(=C\n1ccc(=O)[nH]c1=S)C(N)=O the listed TGI is > 100 µM

---

Test system: TK-10 renal
Test: NCI tumour cell line growth inhibition, 48 h
Each record here notes measured TGI.

Before answering, review these 3 worked examples.
>>> endpoint_value("CC1Cn2c(nc3ccccc32)NC1=O (configuration not stated)")
"> 100 µM"
>>> endpoint_value("COc1ccc2nc3ccccc3c(NCCCCCCN(CCCl)CCCl)c2c1")
"23.8 µM"
>>> endpoint_value("COc1ccc2[nH]c3c4c(ccc3c2c1)C(=O)C=CC4=O")
"28.1 µM"

For record CCCCOC(=O)NC(=O)c1cn(CCCOC(=O)NCCCCCCNC(=O)OCCCn2cc(C(=O)NC(=O)OCCCC)c(=O)[nH]c2=O)c(=O)[nH]c1=O the listed TGI is > 100 µM

For record C[C@H](N)C(=O)Nc1ccc(-c2nc3ccccc3s2)cc1 the listed TGI is 60.8 µM

For record Cc1cc(C)[n+](CCOc2ccc(/C(=C(/Cl)c3ccccc3)c3ccccc3)cc2)c(C)c1 the listed TGI is 13.1 µM

For record O=C(Nc1cc(Cl)ccc1Cl)C(=O)C(c1cnc2ccccc2n1)[N+](=O)[O-] (configuration not stated) the listed TGI is > 100 µM

For record COc1ccc(-c2ccc(/C=N/n3c(C)n[nH]c3=S)o2)c([N+](=O)[O-])c1 the listed TGI is > 100 µM

For record COc1ccc(-c2c[nH]c(=S)n2-c2ccc(OC)cc2)cc1 the listed TGI is > 50 µM

For record Cc1cn2c(/C=C3\C(=O)N(C)c4ccc(O)cc43)c(C)nc2s1 the listed TGI is > 100 µM

For record O=c1c2c([N+](=O)[O-])cccc2nc2[nH]c3ccccc3n12 the listed TGI is 51.6 µM

For record CCCCCC(=O)NC(=S)Nc1nn[nH]n1 the listed TGI is > 100 µM

---

Tested on: 786-0 renal
Test: NCI tumour cell line growth inhibition, 48 h
Each record here notes measured log10(TGI).
In our notation, the value equals log10 of TGI in µM.

>>> endpoint_value("O=C(Nc1ccc(-c2ccccc2)cc1)C1CCN(S(=O)(=O)c2ccccc2Cl)CC1")
1.89

For record O=C1Nc2c(ccc(Cl)c2I)C1=O the listed log10(TGI) is 1.45

---

System: SW-620 colon
Assay: NCI tumour cell line growth inhibition, 48 h
Each record here notes measured TGI.

Before answering, review these 4 worked examples.
>>> endpoint_value("COc1cccc(/C(COc2ccc3c(c2)oc(=O)c2cc(OC)ccc23)=N/O)c1")
"> 100 µM"
>>> endpoint_value("CCOC(=O)c1ccc(N2C(=S)N(C(=O)c3ccccc3)C(=Nc3ccccc3)C2=Nc2ccccc2)cc1")
"> 100 µM"
>>> endpoint_value("COC(=O)N/N=C(\\C)C(CN1CCCCC1)C(C1=C(O)c2ccccc2OC1)c1ccccc1 (stereo not drawn)")
"> 100 µM"
>>> endpoint_value("Cc1[nH]c(=O)[nH]c(=O)c1/C=C/C(=O)O")
"> 1000 µM"

For record COc1ccc2c(c1)C(C)Cc1c(ncnc1-n1c(C)nc3ccccc31)N2C (stereo not drawn) the listed TGI is 28 µM

For record COc1ccc(C2c3cc(OC)c(OC)cc3C(Cc3ccc([N+](=O)[O-])cc3)C2c2ccc([N+](=O)[O-])cc2)cc1OC (stereo not drawn) the listed TGI is > 100 µM

For record CCOC(=O)/C=C(/C(=O)OCC)n1ccc(N)nc1=O the listed TGI is > 100 µM
